selectivity ratio listing for selected molecules.
Experiment summary: Therapeutic index, ratio of CC50 for human A549 cells to MIC for Streptococcus pneumoniae ATCC 49619
Assay type: toxicity
Protocol conditions: read-out: TI
Write no unit; give the number alone.

// below: answered molecules
                                smiles_repr  measured_value
0  O=C(O)c1ccc(Cl)c(NCc2ccc(Sc3ccc(Cl)c(Cl)c3)c([N+](=O)[O-])c2)c1              28
1  O=C(O)c1ccc(Cl)cc1NCc1ccc(Sc2ccc(Cl)c(Cl)c2)c([N+](=O)[O-])c1              37
2  O=C(O)c1ccc(Br)c(NCc2ccc(Sc3ccc(Cl)c(Cl)c3)c([N+](=O)[O-])c2)c1              18
3  O=C(O)c1ccccc1NCc1ccc(Sc2ccc(Cl)c(Cl)c2)c([N+](=O)[O-])c1              57

Enquiry: Query: selectivity ratio; subject: O=C(O)c1ccccc1C(=O)c1ccc(Sc2ccc(Cl)c(Cl)c2)c([N+](=O)[O-])c1
Return: 9

Enquiry: Can you look up the measured selectivity ratio of O=C(O)c1c(Cl)cccc1NCc1ccc(Sc2ccc(Cl)c(Cl)c2)c([N+](=O)[O-])c1 for me?
Return: 11

* * *

Test system: Streptococcus pneumoniae
Experiment summary: Antibacterial activity against Streptococcus pneumoniae ATCC 49619 after 20 hrs by CLSI based-broth microdilution method
Type: functional
Protocol conditions: ATCC 49619, 20 h
Rule for this label: Met means MIC is less than 100 µg/mL; Not met means MIC is at least 100 µg/mL.

Look over these answered cases.
Molecule	Study system	Assigned class
Nc1ccccc1Nc1ccc(C(=O)c2ccccc2C(=O)O)cc1[N+](=O)[O-]	Streptococcus pneumoniae	Not met
Cc1cccc(Nc2ccc(C(=O)c3ccccc3C(=O)O)cc2[N+](=O)[O-])c1	Streptococcus pneumoniae	Not met
Nc1ccccc1Sc1ccc(C(=O)Nc2ccccc2C(=O)O)cc1[N+](=O)[O-]	Streptococcus pneumoniae	Met
Cc1ccc(Sc2ccc(C(=O)c3ccccc3C(=O)O)cc2[N+](=O)[O-])c(C)c1	Streptococcus pneumoniae	Met
O=C(O)c1ccc(Br)c(NCc2ccc(Sc3ccc(Cl)c(Cl)c3)c([N+](=O)[O-])c2)c1	Streptococcus pneumoniae	Met
O=C(O)c1ccccc1C(=O)c1ccc(Nc2cccc(Cl)c2)c([N+](=O)[O-])c1	Streptococcus pneumoniae	Not met

Could you now look at the following molecule, please?
Enquiry: Take the molecule N#Cc1ccccc1NCc1ccc(Sc2ccc(Cl)c(Cl)c2)c([N+](=O)[O-])c1 and say whether its MIC is less than 100 µg/mL.
Return: Not met

* * *

Catalogue of MIC readings, one per entry.
Test system: Streptococcus pneumoniae
Experiment summary: Antibacterial activity against Streptococcus pneumoniae ATCC 49619 after 20 hrs by CLSI based-broth microdilution method
Format: functional
Protocol conditions: ATCC 49619, 20 h
Give the quantity in µg/mL, number only.

Known MIC results, listed for orientation:
Smiles repr	Measure unit	MIC
O=C(O)c1cc(NCc2ccc(Sc3ccc(Cl)c(Cl)c3)c([N+](=O)[O-])c2)ccc1Cl	µg/mL	256
O=C(O)c1ccccc1C(=O)c1ccc(N2CCCCC2)c([N+](=O)[O-])c1	µg/mL	256
O=C(O)c1ccccc1C(=O)c1ccc(Sc2ccc(Cl)cc2Cl)c([N+](=O)[O-])c1	µg/mL	32
Nc1ccccc1Sc1ccc(CNc2ccc(C(=O)O)cc2)cc1[N+](=O)[O-]	µg/mL	256
Nc1ccccc1Sc1ccc(C(=O)Nc2cccc(C(=O)O)c2)cc1[N+](=O)[O-]	µg/mL	128

Now turn to the next molecule.
Enquiry: Form field: reported MIC of CCN(CC)C(=O)c1ccc(Sc2ccc(C(=O)c3ccccc3C(=O)O)cc2[N+](=O)[O-])c([N+](=O)[O-])c1
Return: 256
